Assay Info: folding stability dG unfold from trypsin proteolysis; higher = more stable
Each record's class is read off its folding stability dG unfold using these ranges: bottom bin = under 0.3 kcal/mol, middle bin = from 0.3 kcal/mol up to 2 kcal/mol, top bin = 2 kcal/mol and over

// below: answered sequences
- SAGGSAGGSAEPGPEELAKALAGELEKRFGKPVKEVKAYEIPGEKRYIVTAKLDDGEFTIIASAGGSAGGSA [r18_145_TrMRF]: bottom bin
- SAGGSAGGSAMEITITVPKENEEEVLEAAKKALEELGIEEVKVEKLEDGTYKVTARVKPGLSAGGSAGGSAG [r3_335_TrROS_Hall]: middle bin
- SAGAKVEIEFEGNKVTAKIEFGEGTVTVEGEVKLLPDGSALFKPKIYKDGKKIGEFTVLLDLPEGAEVLSAG [r5_221_TrMRF]: middle bin

Q: Dear colleague, I would appreciate it if you could identify the bin for SAGGMKTIEITIKTEDGYTIKIKITEKDGKLYIEIEIEDPNMSEEQREKIKKEIEELAKKLNIKVEIPSAGG [r13_774_TrROS_Hall] and reply at your convenience.
Ans: top bin

Q: Record SAGGMETIELEIEITDEDGNTYRIRVTIERKDGKLVIKIEVEAETPEERERARELAEELARRLEEELSAGGS [r8_416_TrROS_Hall] — which class?
Ans: top bin

Q: Kindly identify the class of SKDPNNEWVVIKFEVTIPVPPGQKPITADEIASQVRQIMQNHGMEITSVEVEYRGNQVTVSVEIVIPKKASA [r9_1134_TrROS] .
Ans: top bin
